- System: MDA-MB-231 cells
- test-description: ultra-low adherent 3D-spheroid suspension cell viability (3D Cell Titer-Glo), 120 hours
- Type: cell-based
- run-parameters: Homo sapiens
measured-endpoint: pIC50
On this scale, pIC50 is minus log10 of a concentration expressed in M (mol/L).

query: I am curious: what pIC50 value has been reported for COc1cc(C2CCN(C)CC2)ccc1Nc1ncc2c(n1)N(C)c1sc(C)nc1C(=O)N2C [Compound 19] ?
result: 5.43

query: I am curious: what pIC50 value has been reported for COc1cc(N2CCN(C)CC2)c(C)cc1Nc1ncc2c(n1)N(C)c1sc(C)nc1C(=O)N2C [Compound 18] ?
result: 5.11

query: I am curious: what pIC50 value has been reported for COc1cc(N2CCNCC2)ccc1Nc1ncc2c(n1)N(C)c1sc(C)nc1C(=O)N2C [Compound 12] ?
result: 5.60

query: I am curious: what pIC50 value has been reported for COc1cc(N2CCN(C)CC2)ccc1Nc1ncc2c(n1)N(C)c1sc(C)nc1C(=O)N2C [Compound 14] ?
result: 5.64

query: I am curious: what pIC50 value has been reported for CCOc1cc(N2CCN(C)CC2)ccc1Nc1ncc2c(n1)N(C)c1sc(C)nc1C(=O)N2C [Compound 16] ?
result: 5.21

query: I am curious: what pIC50 value has been reported for CCN1C(=O)c2nc(C)sc2N(C)c2nc(Nc3ccc(N4CCC(N5CCN(C)CC5)CC4)cc3OC)ncc21 [Compound 132] ?
result: 6.03

FYI, the data here is from patent US12365696B2.
